B1: Caulobacter ParB omega fusion; a variant is named by its letters at X, in order, B8GW30 (parent)
chain: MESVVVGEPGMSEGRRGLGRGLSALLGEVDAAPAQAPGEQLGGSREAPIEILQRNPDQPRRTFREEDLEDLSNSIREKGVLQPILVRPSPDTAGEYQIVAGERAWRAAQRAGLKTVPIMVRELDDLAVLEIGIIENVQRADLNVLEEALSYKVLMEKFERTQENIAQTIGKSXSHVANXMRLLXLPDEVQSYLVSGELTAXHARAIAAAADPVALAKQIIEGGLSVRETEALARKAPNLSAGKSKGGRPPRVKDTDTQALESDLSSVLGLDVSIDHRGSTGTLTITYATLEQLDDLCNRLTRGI

- Variants of: B1
- Procedure summary: one-hybrid fitness for binding parS DNA (scaled: cognate 1, non-cognate 0); higher = stronger binding
- Settings: with parS DNA site
The full ranking holds about 81,000 sequences; the median of “one-hybrid fitness for binding parS DNA” is about -0.17, and the highest 2% start at about 0.51. For the sample, the highest values were picked, then their nearest neighbours and some sequences at random.
Metric: one-hybrid fitness for binding parS DNA

INSERT INTO measurements (mutation_id, metric, endpoint_value) VALUES
  ('TKKR', 'one-hybrid fitness for binding parS DNA', '≤ 0.2'),
  ('RYNE', 'one-hybrid fitness for binding parS DNA', '≤ 0.2'),
  ('RYST', 'one-hybrid fitness for binding parS DNA', 0.862),
  ('RYRQ', 'one-hybrid fitness for binding parS DNA', '≤ 0.2'),
  ('RYLN', 'one-hybrid fitness for binding parS DNA', 0.396),
  ('YVAM', 'one-hybrid fitness for binding parS DNA', '≤ 0.2'),
  ('FLDR', 'one-hybrid fitness for binding parS DNA', '≤ 0.2'),
  ('LDNV', 'one-hybrid fitness for binding parS DNA', '≤ 0.2'),
  ('RYNT', 'one-hybrid fitness for binding parS DNA', 0.819),
  ('RYLT', 'one-hybrid fitness for binding parS DNA', 0.911),
  ('PFAT', 'one-hybrid fitness for binding parS DNA', '≤ 0.2');
